- Tested on: MOLT-4
- method.summary: NCI tumour cell line growth inhibition, 48 h
The source made the active and inactive calls. No stated cut-off is given here; in the data, active = GI50 up to about 1.1 µM and inactive = higher.
The reply should name one outcome from y = active, n = inactive

Please review the following examples before continuing.
In [3]: df
Out[3]:
                                   compound  category
0            O=C(CCCCCNC(=O)c1ccc(Cl)cc1)NO         n
1            C=C(Br)COc1ccc2c(C)cc(=O)oc2c1         n
2     O=C1C=C/C(=N\N=C(c2ccccc2)c2ccccc2)O1         n
3                Cc1c2ccncc2cc2c1sc1ccncc12         y
4  O=C1C[C@@H]2C(COC(=O)c3ccccc3)N(OCc3ccccc3)C[C@@H]2O1 (stereo partly specified)         n
5        Cc1oncc1/N=C1\C=C(O)C(=O)c2ccccc21         n
6        O=C(/C=C/c1cccc(Br)c1)c1ccc(Cl)cc1         n
7          COc1ccccc1-c1cc(=O)c2ccccc2[nH]1         n
8  N=C(N)NS(=O)(=O)c1ccc(NC(=O)c2cccc3c(Nc4ccc(S(=O)(=O)N=C(N)N)cc4)c4ccc(Cl)cc4nc23)cc1         n
9   CN(CCCN(C)CCc1ccc(Cl)c(Cl)c1)CCCN1CCCC1         y

Please examine the following record next.
QUERY: Hello, I am checking results. What call was entered for O=S(O)CCCSSCCCCSSCCCS(=O)O ?
RESULT: n
